- MEASURED ON: T1, recombinant His-tagged Der p1 (dust mite, UniProt P08176 99-320, limits assumed)
- T1 construct: Recombinant His-tagged protein made by the applicant; also called Der p1-His; Der pl; not shown: His tag
- T1 sequence (looked up): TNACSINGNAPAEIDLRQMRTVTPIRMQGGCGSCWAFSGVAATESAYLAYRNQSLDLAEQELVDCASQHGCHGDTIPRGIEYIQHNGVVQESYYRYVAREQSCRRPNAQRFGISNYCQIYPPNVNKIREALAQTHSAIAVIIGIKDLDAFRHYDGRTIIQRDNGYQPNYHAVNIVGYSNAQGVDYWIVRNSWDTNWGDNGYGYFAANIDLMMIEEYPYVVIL
- TEST: ELISA, Der p1 on plate, biotinylated peptide at 0.370, duplicate 1
No end group written: not given here.
Label 1.0 for high-side OD450 (at or above 0.08 OD450) and 0.0 for low-side OD450 (below it).

Answer whether OD450 of LTGYGMS (also: biotinylated, site not given here, 7-amino acid peptide from a phage display library) [SDAB22110-2-D9] is greater than or equal to 0.08 OD450. 0.0

Moving on to the next binder: HSGPECG (also: biotinylated, site not given here, 7-amino acid peptide from a phage display library) [SDAB22110-2-D3] 1.0

Moving on to the next binder: GIHMALM (also: biotinylated, site not given here, 7-amino acid peptide from a phage display library) [SDAB22110-2-B2] 1.0

Moving on to the next binder: AVVSFYP (also: biotinylated, site not given here, 7-amino acid peptide from a phage display library) [SDAB22110-2-F1] 0.0

Moving on to the next binder: YPTWAYR (also: biotinylated, site not given here, 7-amino acid peptide from a phage display library) [SDAB22110-2-C3] 0.0

Moving on to the next binder: VVAFGIS (also: biotinylated, site not given here, 7-amino acid peptide from a phage display library) [SDAB22110-2-G1] 1.0
